Reported Relative Luminescence Activity h-CTZ Imax is given for each of the following molecules.
# Protocol description: Substrate specificities of KAZ mutants (ZZ-fused, crude enzyme), h-CTZ
# Type: biochemical
# Protocol conditions: 1 μg substrate, maximum intensity of luminescence
Endpoint label: Relative Luminescence Activity h-CTZ Imax

INSERT INTO results (molecule, quantitative_readout) VALUES
  ('KAZ-V44I-A54I: KAZ mutant with two amino acid substitutions V44I and A54I, SEQ ID NO: 10 (protein) FTLADFVGDWQQTAGYNQDQVLEQGGLSSLFQALGVSVTPIQKIVLSGENGLKIDIHVIIPYEGLSGFQMGLIEMIFKVVYPVDDHHFKIILHYGTLVIDGVTPNMIDYFGRPYPGIAVFDGKQITVTGTLWNGNKIYDERLINPDGSLLFRVTINGVTGWRLCENILA', 17.9),
  ('KAZ-V44I: KAZ with single amino acid substitution V44I, SEQ ID NO: 4 (protein) FTLADFVGDWQQTAGYNQDQVLEQGGLSSLFQALGVSVTPIQKIVLSGENGLKADIHVIIPYEGLSGFQMGLIEMIFKVVYPVDDHHFKIILHYGTLVIDGVTPNMIDYFGRPYPGIAVFDGKQITVTGTLWNGNKIYDERLINPDGSLLFRVTINGVTGWRLCENILA', 3.7),
  ('KAZ-A54I: KAZ with single amino acid substitution A54I, SEQ ID NO: 6 (protein) FTLADFVGDWQQTAGYNQDQVLEQGGLSSLFQALGVSVTPIQKVVLSGENGLKIDIHVIIPYEGLSGFQMGLIEMIFKVVYPVDDHHFKIILHYGTLVIDGVTPNMIDYFGRPYPGIAVFDGKQITVTGTLWNGNKIYDERLINPDGSLLFRVTINGVTGWRLCENILA', 11.8);
